- Subject Of Test: T1, GST-Shank 1 PDZ domain 1 (Homo sapiens (Human)), Q9UPX8
- T1 chain: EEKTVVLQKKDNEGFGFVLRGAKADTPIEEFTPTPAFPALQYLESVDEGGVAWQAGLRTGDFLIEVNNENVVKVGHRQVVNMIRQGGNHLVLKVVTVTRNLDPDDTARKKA
- Procedure Details: G' assay; note: key of the grades not given here
Assay Readout: Classification (A450 class)
Give the value in A450 class but do not write A450 class after it.

# example entries with known answers
# Binder, Numeric Value
records = [
    ("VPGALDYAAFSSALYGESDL (modifications not checked) [a-actinin 2]", 1),
    ("RDSFHRSSFRKAETQLSQGS (modifications not checked) [Clasp-5]", 1),
]

Now take the following binder into account.
What measured Classification goes with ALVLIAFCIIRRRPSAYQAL (modifications not checked) [CD68] ?
1
